Hi there, I'd appreciate the recorded log10(IC50) for every entry that follows.
# TARGET ENTITY: human orexin-2 receptor (Homo sapiens (Human), UniProt O43614)
# Sequence (O43614 whole entry): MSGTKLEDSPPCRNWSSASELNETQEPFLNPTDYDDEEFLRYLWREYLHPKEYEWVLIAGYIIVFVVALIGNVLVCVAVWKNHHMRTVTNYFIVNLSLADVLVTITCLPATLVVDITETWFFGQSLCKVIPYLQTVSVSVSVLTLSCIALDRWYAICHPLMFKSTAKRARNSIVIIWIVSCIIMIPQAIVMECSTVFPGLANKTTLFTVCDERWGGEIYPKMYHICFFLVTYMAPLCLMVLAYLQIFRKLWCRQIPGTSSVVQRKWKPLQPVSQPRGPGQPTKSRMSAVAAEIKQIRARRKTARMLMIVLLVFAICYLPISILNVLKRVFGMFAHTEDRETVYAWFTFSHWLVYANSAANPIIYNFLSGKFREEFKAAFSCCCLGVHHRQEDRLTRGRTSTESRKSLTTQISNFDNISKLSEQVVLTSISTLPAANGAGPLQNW
# PROCEDURE SUMMARY: In vitro assay: intracellular calcium measurements (FLIPR), antagonistic activity
# TEST CONTEXT: CHO cells expressing human orexin-2 receptor, orexin-A agonist, geometric mean, read-out: IC50 Ox2
Units before log transform: nM; reported quantity: IC50; transform: log10.

get_value(item= Cc1c(Cl)ccc2nc([C@]3(C)CCCN3C(=O)c3c(F)cccc3-c3ccccc3)[nH]c12 , readout=log10(IC50)) returns 1.64

get_value(item= CSc1cccc2nc([C@@H]3CCCN3C(=O)c3nc(C)sc3-c3cc(F)cc(F)c3)[nH]c12 , readout=log10(IC50)) returns 2.21

get_value(item= Cc1nc(C(=O)N2CCCC2c2nc3cc(Cl)c(Cl)cc3[nH]2)c(-c2ccccc2)s1 (stereo not drawn) , readout=log10(IC50)) returns 1.89

get_value(item= COc1ccc(-n2nccn2)c(C(=O)N2CCC[C@H]2c2nc3ccc(SC)cc3[nH]2)c1 , readout=log10(IC50)) returns 1.04

get_value(item= C=C1C[C@@H](c2nc3cccc(C)c3[nH]2)N(C(=O)c2nc(C)ccc2-n2cccn2)C1 , readout=log10(IC50)) returns 1.89

get_value(item= C=C1C[C@@H](c2nc3ccc(Cl)c(C)c3[nH]2)N(C(=O)c2cc(Cl)ccc2-n2nccn2)C1 , readout=log10(IC50)) returns 0.00

get_value(item= C=C1C[C@@H](c2nc3cc(C(C)(C)C)ccc3[nH]2)N(C(=O)c2cc(C)ccc2-n2nccn2)C1 , readout=log10(IC50)) returns 0.30

get_value(item= COCCn1c([C@]2(C)CCCN2C(=O)c2cc(C)ccc2-n2nccn2)nc2cc(OC)c(OC)cc21 , readout=log10(IC50)) returns 1.89

get_value(item= CO[C@H]1CN(C(=O)c2c(F)cccc2-n2nccn2)C(C)(c2nc3c(C)c(Cl)ccc3[nH]2)C1 (stereo partly drawn) , readout=log10(IC50)) returns 2.60

get_value(item= Cc1cc2[nH]c([C@@H]3[C@@H](C)CCN3C(=O)c3ccccc3-n3nccn3)nc2cc1Cl , readout=log10(IC50)) returns 2.05

get_value(item= C=C1CC(c2nc3cc(OC)ccc3[nH]2)N(C(=O)c2cc(C)sc2-c2ccc(C)c(C)c2)C1 (racemic) , readout=log10(IC50)) returns 0.30

get_value(item= COc1ccc(-c2sc(C)nc2C(=O)N2CC[C@H](C)[C@H]2c2nc3cc(C(F)(F)F)ccc3[nH]2)cc1 , readout=log10(IC50)) returns 3.44

get_value(item= Cc1ccc(-n2nccn2)c(C(=O)N2CCC[C@@]2(C)c2nc3c(C)c(Cl)ccc3n2C)c1 , readout=log10(IC50)) returns 0.48

get_value(item= COc1cc2nc([C@@H]3[C@@H](C)CCN3C(=O)c3ccccc3-n3nccn3)[nH]c2cc1OC , readout=log10(IC50)) returns 2.73

get_value(item= CO[C@@H]1C[C@@H](c2nc3ccc(Cl)c(C)c3[nH]2)N(C(=O)c2nc(C)sc2-c2ccc(C)c(C)c2)C1 , readout=log10(IC50)) returns 0.90

----------
# TARGET ENTITY: human orexin-1 receptor (Homo sapiens (Human))
# Sequence (O43613 whole entry): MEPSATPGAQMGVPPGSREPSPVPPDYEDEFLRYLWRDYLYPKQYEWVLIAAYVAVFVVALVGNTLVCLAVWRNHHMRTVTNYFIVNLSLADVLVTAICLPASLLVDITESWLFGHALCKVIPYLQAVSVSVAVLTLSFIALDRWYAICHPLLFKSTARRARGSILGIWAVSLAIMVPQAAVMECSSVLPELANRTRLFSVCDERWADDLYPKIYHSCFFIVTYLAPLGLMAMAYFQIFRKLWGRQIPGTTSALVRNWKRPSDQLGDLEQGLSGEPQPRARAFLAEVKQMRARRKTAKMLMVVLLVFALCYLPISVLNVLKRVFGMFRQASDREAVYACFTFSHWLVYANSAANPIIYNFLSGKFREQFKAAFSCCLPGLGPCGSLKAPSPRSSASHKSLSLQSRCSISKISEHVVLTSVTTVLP
# PROCEDURE SUMMARY: In vitro assay: intracellular calcium measurements (FLIPR), antagonistic activity
# TEST CONTEXT: CHO cells expressing human orexin-1 receptor, orexin-A agonist, geometric mean, read-out: IC50 Ox1
Hi there, I'd appreciate the recorded pIC50 for every entry that follows.
The quantity pIC50 is defined as the negative base-10 logarithm of the molar concentration.

get_value(item= C=C1CN(C(=O)c2ccccc2-c2ccccc2)C(C)(c2nc3cc(OC)ccc3[nH]2)C1 (stereo not shown) [Ex. 6.150] , readout=pIC50) returns 6.66

get_value(item= Cc1ccc(-c2sc(C)nc2C(=O)N2CCC[C@@]2(C)c2nc3c(F)c(F)ccc3[nH]2)cc1 [Ex. 5.209] , readout=pIC50) returns 7.77

get_value(item= C[C@@]1(c2nc3cc(C(F)(F)F)c(Cl)cc3[nH]2)CCCN1C(=O)c1cc(C(F)(F)F)ccc1-n1nccn1 [Ex. 5.144] , readout=pIC50) returns 7.70

get_value(item= Cc1ccc(-c2nc(C(=O)N3CCC[C@@]3(C)c3nc4c(C)c(Cl)ccc4[nH]3)c(-c3ccc(F)cc3)s2)c(F)c1 [Ex. 5.253] , readout=pIC50) returns 7.92

get_value(item= Cc1ccc(-c2ccccc2F)c(C(=O)N2CCC[C@@]2(C)c2nc3cc(C)c(C)cc3[nH]2)c1 [Ex. 5.95] , readout=pIC50) returns 7.96

get_value(item= C=C1C[C@@H](c2nc3ccc(Cl)c(C)c3[nH]2)N(C(=O)c2nc(C)sc2-c2cccc(Br)c2)C1 [Ex. 6.123] , readout=pIC50) returns 8.70

get_value(item= C=C1C[C@@H](c2nc3c(C)c(Cl)ccc3[nH]2)N(C(=O)c2nc(C)sc2-c2cccc(Cl)c2)C1 [Ex. 6.45] , readout=pIC50) returns 9.00
